The entries below are paired with their reported pIC50.
Target: FGFR2-WT (Homo sapiens, UniProt P21802)
Sequence (P21802 430-767 limits assumed): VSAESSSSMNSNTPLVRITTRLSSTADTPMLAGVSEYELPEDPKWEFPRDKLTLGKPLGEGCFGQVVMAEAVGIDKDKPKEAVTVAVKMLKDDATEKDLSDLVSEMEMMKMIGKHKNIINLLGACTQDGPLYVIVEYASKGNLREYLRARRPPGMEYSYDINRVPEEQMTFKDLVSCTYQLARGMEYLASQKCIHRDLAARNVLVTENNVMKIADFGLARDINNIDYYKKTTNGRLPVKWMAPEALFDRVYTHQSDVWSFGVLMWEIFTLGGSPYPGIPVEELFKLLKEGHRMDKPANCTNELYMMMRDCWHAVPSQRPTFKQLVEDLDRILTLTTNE
Assay: Phosphorylated FGFR2-WT (pFGFR2-WT) cell assay, KATOIII cells
Details: 1 hour incubation, phospho FGFR2 HTRF
pIC50: −log10 of the molar value.

{"COMPOUND": "C[C@H](Oc1cc(-c2cnn(C3CCNCC3)c2)cn2ncc(C#N)c12)c1ccccn1 [Compound 3]", "pIC50": 6.89}
{"COMPOUND": "C[C@@H](Oc1cc(-c2ccc(N3CCC(O)CC3)nc2)cn2ncc(C#N)c12)c1ccc(F)cn1 [Compound 56]", "pIC50": 8.47}
{"COMPOUND": "Cc1c(-c2cc(O[C@@H](CO)c3ccc(F)cn3)c3c(C#N)cnn3c2)cnn1[C@H]1CC[C@H](O)CC1 [Compound 66]", "pIC50": 6.10}
{"COMPOUND": "C[C@@H](Oc1cc(-c2nnn(C)c2N)cn2ncc(C#N)c12)c1ccc(F)cn1 [Compound 34]", "pIC50": 7.77}
